TARGET_ENTITY: PPAR-delta (UniProt Q03181)
RUN_DESCRIPTION: PPAR-delta transactivation assay (GAL4 chimera, luciferase reporter) in CV-1 cells
ASSAY_CONDITIONS: GAL4-PPAR LBD chimera
pEC50: −log10 of the molar value.
MEASUREMENT_LABEL: pEC50

{"COMPOUND": "CCC1CN(S(=O)(=O)c2ccc3c(c2)C(C(=O)O)CC3)CCN1c1ccc(C(F)(F)F)cn1 (stereo not shown)", "pEC50": "> 5.30"}
{"COMPOUND": "O=C(O)C1CCc2ccc(S(=O)(=O)N3CCN(c4ccc(OC(F)(F)F)cc4)CC3)cc21 (stereo not shown)", "pEC50": "> 5.30"}
{"COMPOUND": "O=C(O)C1Cc2cccc(S(=O)(=O)N3CCN(c4ccc(Cl)cc4)CC3)c2C1 (stereo not shown)", "pEC50": "> 5.30"}
{"COMPOUND": "O=C(O)C1Cc2cccc(S(=O)(=O)N3CCN(c4ccc(OC(F)(F)F)cc4)CC3)c2C1 (stereo not shown)", "pEC50": "> 5.30"}
{"COMPOUND": "C[C@@H]1CN(Cc2ccc(OC(F)(F)F)cc2)C[C@H](C)N1S(=O)(=O)c1cccc2c1CC(C(=O)O)C2 (single isomer, unassigned) [Example 140]", "pEC50": "> 5.30"}
{"COMPOUND": "C[C@@H]1CN(c2ccc(C(F)(F)F)cn2)C[C@H](C)N1S(=O)(=O)c1cccc2c1CC(C(=O)O)C2 (stereo partly shown)", "pEC50": "> 5.30"}

Please examine the following record next.
Which pEC50 is listed for O=C(O)C1Cc2ccc(S(=O)(=O)N3CC=C(c4ccc(C(F)(F)F)cc4)CC3)cc2C1 (stereo not shown) ?
4.00 to 5.30

----------
Property: pEC50; scope: individual compounds
TARGET_ENTITY: PPAR-delta (UniProt Q03181)
RUN_DESCRIPTION: PPAR-delta transactivation assay (GAL4 chimera, luciferase reporter) in CV-1 cells
ASSAY_CONDITIONS: GAL4-PPAR LBD chimera
pEC50: −log10 of the molar value.

{"COMPOUND": "CCC1CN(c2ccc(Cl)c(Cl)c2)CCN1S(=O)(=O)c1ccc2c(c1)C(C(=O)O)CC2 (centres unmarked)", "MEASUREMENT_LABEL": "pEC50", "TEST_RESULT": "> 5.30"}
{"COMPOUND": "CCc1ccc(N2C[C@@H](C)N(S(=O)(=O)c3cccc4c3CC(C(=O)O)C4)[C@@H](C)C2)cc1 (some centres unmarked)", "MEASUREMENT_LABEL": "pEC50", "TEST_RESULT": "> 5.30"}

Could you tell me which pEC50 is on file for O=C(O)C1CCc2ccc(S(=O)(=O)N3CCN(c4ccc(C(F)(F)F)c(Cl)c4)CC3)cc21 (centres unmarked) ?
> 5.30

Report pEC50 for O=C(O)C1Cc2cccc(S(=O)(=O)N3C4CCCC3CN(c3ccc(OC(F)(F)F)cc3)C4)c2C1 (centres unmarked) please.
> 5.30

So what's the measured pEC50 for this one? `O=C(O)Cc1csc2ccc(S(=O)(=O)N3CCN(c4ccc(C(F)(F)F)cn4)CC3)cc12`
> 5.30

Endpoint output: pEC50 of O=C(O)C1CCc2ccc(S(=O)(=O)N3CC=C(c4ccc(C(F)(F)F)cc4)CC3)cc21 (centres unmarked) . Value?
> 5.30

State the recorded pEC50 for this entry: `O=C(O)CN1CCc2ccc(S(=O)(=O)N3CCN(c4ccc(OC(F)(F)F)cc4)CC3)cc21`
> 5.30

I have this compound here, C[C@@H]1CN(c2ccc(C(F)(F)F)c(Cl)c2)C[C@H](C)N1S(=O)(=O)c1cccc2c1CC(C(=O)O)C2 (relative stereo) [Example 82] , and I need its recorded pEC50.
> 5.30

Which pEC50 is listed for O=C(O)C1Cc2cccc(S(=O)(=O)N3C4CSCC3CN(c3ccc(OC(F)(F)F)cc3)C4)c2C1 (centres unmarked) ?
> 5.30

Please report the recorded pEC50 for C[C@H]1CN(S(=O)(=O)c2ccc3c(c2)C(C(=O)O)CC3)CCN1c1ccc(Cl)c(Cl)c1 (some centres unmarked) .
> 5.30

Please look up its pEC50: COC(=O)[C@@H]1CN(S(=O)(=O)c2ccc3c(c2)C(C(=O)O)CC3)CCN1c1ccc(C(F)(F)F)cn1 (some centres unmarked)
> 5.30

So what's the measured pEC50 for this one? C[C@@H]1CN(c2ccc(C(F)(F)F)cn2)C[C@H](C)N1S(=O)(=O)c1ccc2c(c1)C(C(=O)O)CC2 (some centres unmarked) [Example 27]
> 5.30

pEC50 for C[C@@H]1CN(c2cccc(OC(F)(F)F)c2)C[C@H](C)N1S(=O)(=O)c1cccc2c1CC(C(=O)O)C2 (single isomer, unassigned) [Example 130] ?
4.00 to 5.30

# query: pEC50 of entry `C[C@@H]1CN(c2ccc(C(F)(F)F)cn2)C[C@H](C)N1S(=O)(=O)c1ccc2scc(CC(=O)O)c2c1`
> 5.30

----------
Listed below: pEC50 values for each entry.
TARGET_ENTITY: PPAR-alpha (UniProt Q07869)
RUN_DESCRIPTION: PPAR-alpha transactivation assay (GAL4 chimera, luciferase reporter) in CV-1 cells
ASSAY_CONDITIONS: GAL4-PPAR LBD chimera
pEC50: −log10 of the molar value.

{"MOLECULE": "O=C(O)C1Cc2cccc(S(=O)(=O)N3CC=C(c4ccc(C(F)(F)F)cc4)CC3)c2C1 (centres unmarked)", "pEC50": "4.00 to 5.30"}
{"MOLECULE": "O=C(O)Cc1csc2ccc(S(=O)(=O)N3CCN(c4ccc(C(F)(F)F)cc4)CC3)cc12", "pEC50": "4.00 to 5.30"}
{"MOLECULE": "CCC1CN(c2ccc(C(F)(F)F)c(F)c2)CCN1S(=O)(=O)c1ccc2c(c1)C(C(=O)O)CC2 (centres unmarked)", "pEC50": "> 5.30"}
{"MOLECULE": "C[C@@H]1CN(c2ccc(C(F)(F)F)cn2)CCN1S(=O)(=O)c1ccc2c(c1)C(C(=O)O)CC2 (some centres unmarked)", "pEC50": "> 5.30"}
{"MOLECULE": "CC1CN(c2ccc(C(F)(F)F)cn2)CCN1S(=O)(=O)c1ccc2scc(CC(=O)O)c2c1 (centres unmarked)", "pEC50": "4.00 to 5.30"}
{"MOLECULE": "O=C(O)C1Cc2cccc(S(=O)(=O)N3CCN(c4ccc(OC(F)(F)F)cn4)CC3)c2C1 (centres unmarked)", "pEC50": "> 5.30"}

Form field: pEC50 recorded for C[C@@H]1CN(S(=O)(=O)c2ccc3c(c2)C(C(=O)O)CC3)C[C@H](C)N1c1ccc(C(F)(F)F)cn1 (some centres unmarked) with PPAR-alpha (UniProt Q07869) (enter value)
> 5.30

// lookup pEC50 | system=PPAR-alpha (UniProt Q07869) | key= C[C@@H]1CN(c2ccc(C(F)(F)F)cn2)C[C@H](C)N1S(=O)(=O)c1ccc2c(c1)C(C(=O)O)CC2 (single isomer, unassigned) [Example 76]
< 4.00

Lab request: please report pEC50 under test system PPAR-alpha (UniProt Q07869) for C[C@H]1CN(S(=O)(=O)c2ccc3c(c2)C(C(=O)O)CC3)CCN1c1ccc(C(F)(F)F)cn1 (some centres unmarked)
> 5.30

----------
TARGET_ENTITY: PPAR-delta (UniProt Q03181)
RUN_DESCRIPTION: PPAR-delta transactivation assay (GAL4 chimera, luciferase reporter) in CV-1 cells
ASSAY_CONDITIONS: GAL4-PPAR LBD chimera
MEASUREMENT_LABEL: EC50

{"COMPOUND": "O=C(O)Cn1ccc2cc(Br)c(S(=O)(=O)N3CCN(c4ccc(C(F)(F)F)cc4)CC3)cc21", "MEASUREMENT_LABEL": "EC50", "TEST_RESULT": "< 5 µM"}
{"COMPOUND": "C[C@@H]1CN(Cc2ccc(Cl)c(Cl)c2)C[C@H](C)N1S(=O)(=O)c1cccc2c1CC(C(=O)O)C2 (some centres unmarked)", "MEASUREMENT_LABEL": "EC50", "TEST_RESULT": "< 5 µM"}

Look at this compound and give its reported EC50. C[C@@H]1CN(c2ccc(C(F)(F)F)cn2)C[C@H](C)N1S(=O)(=O)c1ccc2c(c1)C(C)(C(=O)O)CC2 (some centres unmarked)
< 5 µM

# lookup: EC50 of C[C@@H]1CN(c2ccc(C(F)(F)F)cn2)C[C@H](C)N1S(=O)(=O)c1ccc2c(c1)C(C(=O)O)CC2 (single isomer, unassigned) [Example 75]
< 5 µM

Look at this compound and give its reported EC50. CCC1CN(c2ccc(C(F)(F)F)c(F)c2)CCN1S(=O)(=O)c1ccc2c(c1)C(C(=O)O)CC2 (centres unmarked)
< 5 µM

For O=C(O)C1Cc2cccc(S(=O)(=O)N3CCN(Cc4ccc(C(F)(F)F)cc4)CC3)c2C1 (centres unmarked) , what is its reported EC50?
< 5 µM

Can you look up the measured EC50 of CC1CN(c2ccc(C(F)(F)F)cn2)CCN1S(=O)(=O)c1ccc2scc(CC(=O)O)c2c1 (centres unmarked) for me?
< 5 µM

Data request, read-out EC50, for C[C@@H]1CN(c2ccc(C(F)(F)F)c(F)c2)C[C@H](C)N1S(=O)(=O)c1ccc2c(c1)C(C(=O)O)CC2 (some centres unmarked)
< 5 µM

Give the measured EC50 of CCC1CN(c2ccc(C(F)(F)F)cn2)CCN1S(=O)(=O)c1ccc2c(c1)C(C(=O)O)CC2 (centres unmarked) .
< 5 µM

Given the compound CC1CN(S(=O)(=O)c2cccc3c2CC(C(=O)O)C3)C(C)CN1c1ccc(C(F)(F)F)cn1 (single isomer, unassigned) [Example 118] , what is its reported EC50?
< 5 µM

EC50 lookup needed for C[C@@H]1[C@H](C)N(c2ccc(C(F)(F)F)cn2)CCN1S(=O)(=O)c1ccc2scc(CC(=O)O)c2c1 (stereo in doubt) , thanks.
< 5 µM

Given the entry O=C(O)C1Cc2cccc(S(=O)(=O)N3CCN(c4cccc(OCC(F)(F)F)c4)CC3)c2C1 (centres unmarked) , report its measured EC50.
5 to 100 µM

State the recorded EC50 for this entry: O=C(O)C1CCc2ccc(S(=O)(=O)N3CCN(c4ccc(C(F)(F)F)cn4)CC3)cc21 (centres unmarked)
< 5 µM

Would you kindly share the measured EC50 for C[C@H]1CN(S(=O)(=O)c2cccc3c2CC(C(=O)O)C3)[C@@H](C)CN1c1ccc(C(F)(F)F)cn1 (some centres unmarked) ?
< 5 µM
